target-of-assay: his-labeled human IL-13 (immunogen A) (human) (UniProt P35225)
method-summary: cell-based or functional assay
Listing of entries alongside the reported VCAM-1 fluorescence intensity, HUVEC + IL-13 0.5 ng/mL + TNFα; antibody at 0.001 nM.
Would you mind answering with just the numeric figure?

Name the recorded VCAM-1 fluorescence intensity, HUVEC + IL-13 0.5 ng/mL + TNFα; antibody at 0.001 nM of the binder listed here: c70F10A10 (mouse-human chimeric IL-13 antibody) (antibody, V domains shown) VH: QIQLQQSGAELARPGASVKLSCKASGYTFTSYGISWVKQRDGQGLEWIGEIYPRSGNTDYNEKFKGKATLTADKSSSTAYMELRSLTSEDSAVYFCSSFTTLVPTDYFDYWGQGTTLTVSS VL: DIMMSQSPSSLAVSVGEKVSMTCKSSQSLLYSSNQKNYLAWYQQKPGQSPKMLIYWASTRETGVPDRFTGSGSGTDFTLTISSVMAEDLAVYYCHQYFTYPRTFGDGTKLEVK
343

Supply reported VCAM-1 fluorescence intensity, HUVEC + IL-13 0.5 ng/mL + TNFα; antibody at 0.001 nM belonging to this binder: c28A2E11 (mouse-human chimeric IL-13 antibody) (antibody, V domains shown) VH: EVQLQQSGAELVKPGASVKLSCTASGFNIKDYYMHWVKQRTEQGLEWIGRIDPEDGETKYAPKFHDKATLTADTSSNTAYLQFSSLASEDTAVYYCTRYDYYGPFAYWGQGTLVTVSA VL: QAVVTQESVLTTSPGETVTLTCRSSTGAVTTSNYANWVQEKPDHLFTGLIGGTNNRAPGVPARFSGSLIGDKAALTITGAQTEDEAIYFCALWYINHFIFGSGTKVTVL
346

Look up and state reported VCAM-1 fluorescence intensity, HUVEC + IL-13 0.5 ng/mL + TNFα; antibody at 0.001 nM for c35E2C3 (mouse-human chimeric IL-13 antibody) (antibody, V domains shown) VH: EVQLQESGPGLAKPSQTLSLTCSVTGYSITSDYWNWIRKFPGNKLEYMGYISYNGNTYYNPSLKSQISITRDTSKNQLYLQLKSATTEDTATYYCARLAKWTWYFDIWGTGTTVTVSS VL: DIQMNQSPSSLSASLGDTITITCHASQNINVWLSWYQQKPGSLPKLLIYKASDLHTGVPSRFSGSGSGTGFTLTISSLQPEDIATYYCQQGQSYPYTFGGGTKLEIK
402
